- Tested on: Hepatotoxicity
- PROTOCOL: FDA HLAED, alkaline phosphatase increase
- PROTOCOL_CONDITIONS: human
MEASURED_ATTRIBUTE: Alkaline Phosphatase Increase - Number of Reports

1) O=C(O)CCCCCCCC(=O)O	< 4
2) CCCC(=O)Nc1ccc(OCC(O)CNC(C)C)c(C(C)=O)c1 (stereo not drawn)	>= 4
3) CCCc1c2oc(C(=O)O)cc(=O)c2cc2c(=O)cc(C(=O)O)n(CC)c12	< 4

###

- Tested on: Hepatotoxicity
- PROTOCOL: FDA HLAED, gamma-glutamyl transferase (GGT) increase
- PROTOCOL_CONDITIONS: human
MEASURED_ATTRIBUTE: GGT Increase - Number of Reports

// solved cases for GGT Increase - Number of Reports follow
1. Cc1ncc2n1-c1ccc(Cl)cc1C(c1ccccc1F)=NC2 [MIDAZOLAM]	< 4
2. N=C(N)NC(=O)Cc1c(Cl)cccc1Cl [GUANFACINE]	< 4
3. NNC(=O)c1ccncc1 [ISONIAZID]	>= 4
4. CC(C)NCC(O)COc1ccc(CC(N)=O)cc1 (stereo not given) [ATENOLOL]	< 4

Exercise: Tell me the measured GGT Increase - Number of Reports of FC(F)OC(F)C(F)(F)F (stereo not given) , please.
Solution: < 4

Exercise: # GGT Increase - Number of Reports lookup, item O=C1NC(c2ccccc2)(c2ccccc2)C(=O)N1COP(=O)(O)O [FOSPHENYTOIN]
Solution: < 4

Exercise: I'd like to know its GGT Increase - Number of Reports. The compound in question is CCOC(=O)N1CCC(=C2c3ccc(Cl)cc3CCc3cccnc32)CC1 [LORATADINE]
Solution: >= 4

Exercise: Return reported GGT Increase - Number of Reports; argument: CC(C)(C(=O)O)c1ccc(C(O)CCCN2CCC(C(O)(c3ccccc3)c3ccccc3)CC2)cc1 (stereo not given) [FEXOFENADINE]
Solution: < 4

Exercise: // returns reported GGT Increase - Number of Reports for input CNC(=C[N+](=O)[O-])NCCSCc1csc(CN(C)C)n1 [NIZATIDINE]
Solution: >= 4

Exercise: I have this compound here, C[C@@H]1C[C@H]2[C@@H]3CCC4=CC(=O)C=C[C@]4(C)[C@@]3(Cl)[C@@H](O)C[C@]2(C)[C@@]1(O)C(=O)CCl [MOMETASONE] , and I need its recorded GGT Increase - Number of Reports.
Solution: < 4
